Tested on: PPARg:RXRa 30nM:10nM, anti-RXR (NR concentration 30 nM, RXRa partner concentration 10 nM)
Assay Method Text: PBM binding z-score (relative to random genomic background probes); higher = stronger binding; sequences stand for … in GC…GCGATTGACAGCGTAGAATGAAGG
Please enter Criterion met where PBM binding z-score is greater than or equal to 2, and Criterion not met where it is lower.

Worked set:
TCGTGTAGGTTACGGGGGCATTCAGGGATGAAGA :: Criterion met
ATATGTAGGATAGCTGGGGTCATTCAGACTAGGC :: Criterion not met
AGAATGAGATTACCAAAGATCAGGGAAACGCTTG :: Criterion not met
CGTCAAAGGTCAGCAGGTCAGTGAAAGCGACGTG :: Criterion met
CCTTACGGGTCACTGACAGGTTATAGCGTTTGGA :: Criterion not met
ATTTGTAGGTTACATCCGGGTCATTCAGGCTATG :: Criterion met
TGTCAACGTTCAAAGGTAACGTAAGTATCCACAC :: Criterion not met
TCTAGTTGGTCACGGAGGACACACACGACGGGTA :: Criterion met

Reported PBM binding z-score reaches at least 2 for "CAAACGAGGTCACAGAGGTCAAAGTCCGTGCGTA" ?
Criterion met

Record: "TAGCCTAGGTCATTCAGGGGCCACTATAGAAAGC"
Criterion not met

Consider next the sequence "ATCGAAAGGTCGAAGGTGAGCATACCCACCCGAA" in the same way.
Criterion met

How about "ATCGAAAGGTCATGAGGTGAGTATACAGAAAGGC" ?
Criterion met

Continue with "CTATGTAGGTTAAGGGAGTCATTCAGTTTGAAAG"
Criterion not met

Now give it for "CATACAGGGTCGGCTAGGCCAGAGTAGGGACGGC" too.
Criterion not met

Note, next up: "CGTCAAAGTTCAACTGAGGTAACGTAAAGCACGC"
Criterion met

Try this sequence too: "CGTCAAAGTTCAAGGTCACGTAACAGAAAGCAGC"
Criterion met

And for "ATATGTAGGTTAGCTGGGGTCATTCACACTAGGC" ?
Criterion met

Now try "ACTTAAGGGTCAACGAGGTTATAGCACGCGTATA" .
Criterion met

Next sequence up: "CAAACCAGGTCACAGAGGTCAAAGTCCGTGCGTA"
Criterion met

Quick one: "TCTAGTTGGTCACGGAGGTCACAAACGACGGGTA"
Criterion met

Item: "CGTCCAAGGTCATAGGGGGTCAGTGAAGACAGAT"
Criterion met
